target: human norepinephrine transporter (Homo sapiens, UniProt P23975); construct: expressed in transfected cells; host or cells: HEK-293; experiment: hNET Receptor Binding ([125I]-RTI-55 displacement, HEK-293 membranes); conditions: hNET, HEK-293 cell membranes, 50 pM [125I]-RTI-55, Ki from IC50 by Cheng-Prusoff; read-out: NET Ki
Sequence (P23975 whole entry): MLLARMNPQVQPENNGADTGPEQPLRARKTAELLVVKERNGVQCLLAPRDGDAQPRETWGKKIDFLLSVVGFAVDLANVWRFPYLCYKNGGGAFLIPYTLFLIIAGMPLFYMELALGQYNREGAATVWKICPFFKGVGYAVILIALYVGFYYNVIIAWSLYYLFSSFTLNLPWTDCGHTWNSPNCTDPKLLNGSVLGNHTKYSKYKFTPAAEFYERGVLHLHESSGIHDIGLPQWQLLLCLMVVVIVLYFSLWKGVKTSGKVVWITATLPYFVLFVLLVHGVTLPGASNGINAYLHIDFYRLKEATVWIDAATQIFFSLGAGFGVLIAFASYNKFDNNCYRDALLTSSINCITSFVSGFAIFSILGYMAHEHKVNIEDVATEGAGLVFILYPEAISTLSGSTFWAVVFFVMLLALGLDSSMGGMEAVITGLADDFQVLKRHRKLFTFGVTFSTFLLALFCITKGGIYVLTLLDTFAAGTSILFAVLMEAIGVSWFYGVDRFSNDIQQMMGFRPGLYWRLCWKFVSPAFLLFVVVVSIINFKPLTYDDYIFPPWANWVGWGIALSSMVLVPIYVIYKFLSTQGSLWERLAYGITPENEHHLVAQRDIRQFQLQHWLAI
Please respond with reported Ki for every item in the list.
The response must be a number in nM with no trailing unit.

[in] Consider the compound Cc1ccc(OC[C@@H]2CNCC[C@H]2c2ccccc2)nc1 and give its measured Ki.
[out] 157

[in] Likewise for CC(C)Oc1ncccc1OC[C@@H]1CNCC[C@H]1c1ccccc1 ?
[out] 4.18

[in] Likewise for NC(=O)c1cc(Cl)ccc1OC[C@@H]1CNCC[C@H]1c1ccccc1 ?
[out] 1030

[in] Likewise for CCOc1ncccc1OC[C@@H]1CNCC[C@H]1c1cccc(F)c1 (racemic) ?
[out] 4.38

[in] Likewise for CCOc1ccccc1OC[C@@H]1CNCC[C@@H]1c1ccccc1 (relative stereo) ?
[out] 35

[in] Likewise for c1ccc([C@@H]2CCNC[C@H]2COc2cccnc2OC2CCOCC2)cc1 ?
[out] 293

[in] Likewise for c1ccc(-c2ccccc2OC[C@@H]2CNCC[C@@H]2c2ccccc2)cc1 (relative stereo) ?
[out] 215

[in] Likewise for COc1cc(C#N)ccc1OC[C@@H]1CNCC[C@H]1c1ccccc1 ?
[out] 101

[in] Likewise for COCCOc1ncccc1OC[C@@H]1CNCC[C@H]1c1ccccc1 ?
[out] 4.57

====

target: human norepinephrine transporter (Homo sapiens); construct: expressed in transfected cells; host or cells: HEK-293; experiment: hNET Receptor Binding ([125I]-RTI-55 displacement, HEK-293 membranes); details: hNET, HEK-293 cell membranes, 50 pM [125I]-RTI-55, Ki from IC50 by Cheng-Prusoff; read-out: NET Ki
pKi: −log10 of the molar value.
# label = yes if pKi >= 7 else no

[in] Reported pKi reaches at least 7 for Cc1nccnc1OC[C@@H]1CNCC[C@H]1c1ccccc1 ?
[out] no

[in] Likewise for COCCCOc1ncccc1OC[C@@H]1CNCC[C@H]1c1ccccc1 ?
[out] yes

[in] Likewise for N#Cc1ccccc1OC[C@@H]1CNCC[C@H]1c1ccccc1 ?
[out] yes

[in] Likewise for c1ccc(-c2ccccc2OC[C@@H]2CNCC[C@H]2c2ccccc2)cc1 (relative stereo) ?
[out] yes

[in] Likewise for Cn1nc(C(F)(F)F)cc1OC[C@@H]1CNCC[C@H]1c1ccccc1 ?
[out] no

[in] Likewise for COc1cccnc1OC[C@@H]1CNCC[C@H]1c1ccccc1 ?
[out] yes

[in] Likewise for Cc1ccc(OC[C@H]2CNCC[C@@H]2c2ccccc2)nc1 ?
[out] no

[in] Likewise for CC(C)COc1ncccc1OC[C@@H]1CNCC[C@H]1c1ccccc1 ?
[out] yes

Cited source for all entries: patent US20070142389A1
